target: PPARα (Homo sapiens, UniProt Q07869); construct: expressed in transfected cells; host or cells: COS-7 cells; test: PPARα/Gal4 transactivation system in COS-7 cells; type: cell-based; details: 0.003 μM, 24 hours
Sequence (Q07869 239-466 limits assumed): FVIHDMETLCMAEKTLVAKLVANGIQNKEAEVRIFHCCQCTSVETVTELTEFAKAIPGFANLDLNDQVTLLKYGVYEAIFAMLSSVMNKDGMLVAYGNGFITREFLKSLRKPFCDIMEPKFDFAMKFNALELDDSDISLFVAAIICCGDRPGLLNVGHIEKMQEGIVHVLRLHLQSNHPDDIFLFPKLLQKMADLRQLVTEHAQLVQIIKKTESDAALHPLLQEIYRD
readout-name: Induction factor

CCCCCCSc1c(C)cc(C(=O)/C=C/c2cc(C)c(OC(C)(C)C(=O)O)c(C)c2)cc1C = 1.17
CSc1c(C)cc(C(=O)/C=C/c2cc(C)c(OC(C)(C)C(=O)O)c(C)c2)cc1C = 1.58
Cc1cc(/C=C/C(=O)c2c(C)c(C)c(C)c(C)c2C)cc(C)c1OC(C)(C)C(=O)O = 1.09
COc1ccc(C(=O)/C=C/c2cc(C)c(OC(C)(C)C(=O)O)c(C)c2)cc1F = 1.41

1: Cc1cc(/C=C/C(=O)c2ccc(OCCSC3CCCCC3)cc2)cc(C)c1OC(C)(C)C(=O)O
2: Cc1cc(/C=C/C(=O)c2ccc(Oc3ccccc3)cc2)cc(C)c1OC(C)(C)C(=O)O
Compare reported Induction factor values for 1 and 2 . Which is lower? Lab note: record the label of whichever item you select. 1
